test.method.notes: folding stability dG unfold (combined trypsin and chymotrypsin); higher = more stable
measured.attribute: folding stability dG unfold (kcal/mol)
The reply should be a number in kcal/mol, with the unit left off.

Exercise: Look up folding stability dG unfold for this sequence: SAGGSAMSVTLTFEEPVGPGVPVKVTVTVERFPDSVKVTVTTTFPDGTVTTTPVSLKLEPAAVDLLSAGGSA [r15_263_JUSTAS]
Solution: 2.54

Exercise: Also MTPEAFAGPGGRPLAELFLARFRRPVLDPETGLPTWEPAGVLVFPRETEPEELAAIFEALPELEEIEIAPAS [r1_132_TrMRF] , if possible.
Solution: -0.149

Exercise: Also, SAMVLDLTELLREKAAEIRKADPRPLTPEELRELAREAAEELAKETGKPITEIRVEETDEWPRITAVVLSAG [r14_147_JUSTAS] please.
Solution: 0.461

Exercise: // same read-out, input: SAGKKKTVTIYLRVETPEEARKLVEELAKKLGAEVTSVEIEKVDGKYYVTVTIKVDGKEIKIVIEFEPSAGG [r19_262_TrROS_Hall]
Solution: 2.67

Exercise: Next entry: SAGGAEELAKALADELRKLFPGEEIEVTVELVEVEVEPGQKVTLPDGSTVEVPPGAKVLVLKITVKPSAGGS [r16_357_TrROS_Hall]
Solution: 3.44
